Catalogue of compounds with associated Growth Rate
test system: HEK-293T; test: Incucyte cell viability with HEK293T; assay type: toxicity, cell-based; conditions: human, 24 h, 10 µM, compound concentration 10 uM, replicate number 2; also: unitless GR value; below 1 slowed growth and below 0 cell loss
Peptide text beside a SMILES is read from it. * marks the point of attachment. CH2Cl = ClC*
// print number alone

| Compound | Growth Rate |
| --- | --- |
| Cc1ccc(N2C(=O)/C(=C/C=C/c3ccco3)C(=O)NC2=S)cc1Cl | 1 |
| Cc1cc(Cn2c(=O)n(Cc3cnc(C)s3)c(=O)c3cc(S(=O)(=O)NC4(C)CC4)ccc32)n(C)n1 | 0.74 |
| CNC[C@@H](O)COc1ccc(Cl)c(-c2nc(-c3c(C)noc3C)c(C)c(N3CC4(CCN(C(=O)OC)CC4)C3)n2)c1 | 0.73 |

Prompt line: Consider the compound shown here: "Cc1cc(/N=N/c2ccc3c(c2)CCC(=O)N3)c(N)cc1O" What is its recorded Growth Rate?
Response line: 0.88

Prompt line: Then this compound: "CC(C)(C)OC(=O)Nc1ccc(-c2cc(C(=O)NCCCCCCC(=O)NO)no2)cc1"
Response line: 0.67

Prompt line: Then this compound: "CCCCCCCCCCCCCCCCNNC(=O)c1cccs1"
Response line: 1

Prompt line: Then this compound: "C[C@H](Nc1cc(Cl)nc2c1cnn2[C@@H]1O[C@H](COP(=O)(O)CP(=O)(O)O)[C@@H](O)[C@H]1O)c1ccccc1F"
Response line: 1

Prompt line: Then this compound: CC(=O)N[C@@H](Cc1ccccc1)C(=O)N[C@@H](CC(C)C)C(=O)N[C@H](C(=O)N[C@@H](CC(=O)O)C(=O)CCl)[C@@H](C)O (Ac-FLTD-CH2Cl)
Response line: 0.99

###

Catalogue of compounds with associated Growth Rate
system: HEK-293T; assay: Incucyte cell viability with HEK293T; type: toxicity, cell-based; conditions: human, 24 h, 10 µM, compound concentration 10 uM, replicate number 1; also: unitless GR value; below 1 slowed growth and below 0 cell loss
Square brackets hold non-standard residues; d marks the D form. Peptide text beside a SMILES is read from it. * marks the point of attachment. Benzoyl(4-tBu) = CC(C)(C)c1ccc(C(=O)*)cc1; Lys(Et2) = CCN(CC)CCCC[C@H](N)C(=O)O; Cbz = O=C(OCc1ccccc1)*; CH2Cl = ClC*

| Compound | Growth Rate |
| --- | --- |
| CC(=O)N[C@@H](Cc1ccccc1)C(=O)N[C@@H](CC(C)C)C(=O)N[C@H](C(=O)N[C@@H](CC(=O)O)C(=O)CCl)[C@@H](C)O (Ac-FLTD-CH2Cl) | 0.96 |
| Nc1ccccc1NC(=O)c1ccc(CNC(=O)OCc2cccnc2)cc1 | 1 |

Prompt line: // fetch HEK-293T Growth Rate for O=CC1CCCN1C(=O)C1CCCN1C(=O)OCc1ccccc1 (stereo not drawn) (Cbz-Pro-Pro-aldehyde; configuration not given here)
Response line: 0.88

Prompt line: Then this compound: CCN(CC)CCCC[C@H](NC(=O)[C@H](CC(C)C)NC(=O)[C@H](C)NC(=O)[C@H](Cc1ccccc1)NC(=O)c1ccc(C(C)(C)C)cc1)C(=O)N[C@@H](CO)C(=O)OC ({Benzoyl(4-tBu)}-FAL[Lys(Et2)]S-OMe)
Response line: 0.81

Prompt line: Then this compound: "CNC(=O)c1cnc(N2CCC[C@H](N)C2)nc1Nc1cc(C(C)C)nc(C(C)C)c1"
Response line: -0.35

Prompt line: Then this compound: "O=c1[nH]ccc2cc(F)c(NS(=O)(=O)c3ccc(N4CC[C@@H](O)C4)s3)cc12"
Response line: 0.79

Prompt line: Then this compound: "C[C@H](NC(=O)[C@H](Cc1ccccc1)NC(=O)OCc1ccccc1)C(=O)CF"
Response line: 0.53
